# Test system: PDC 899932-113-R3-J6 complex spheroid viability
# EXPERIMENT NOTES: Anticancer human tumor 899932-113-R3-J6-PDC patient-derived melanoma cell line growth inhibition [RAS]
# STUDY CONDITIONS: curve of first compound; second compound 3.16 µM
Assignment: determine reported IC50 for the given compounds.
Provide only the numeric value, understood in µM.

Query block: Give me measured IC50, please, for this compound: CC(C)NCC(C(=O)N1CCN(c2ncnc3c2C(C)CC3O)CC1)c1ccc(Cl)cc1 (stereo not given) + C#Cc1c(F)ccc2cc(O)cc(-c3ncc4c(N5CC6CCC(C5)N6)nc(OCC56CCCN5CC(F)C6)nc4c3F)c12
Result block: 8.55

Query block: Give me measured IC50, please, for this compound: CC1(C)CCC(Nc2ncc(C(F)(F)F)c(-c3c[nH]c4c(P(C)(C)=O)c(C#N)ccc34)n2)CN1 (stereo not given) + C#Cc1c(F)ccc2cc(O)cc(-c3ncc4c(N5CC6CCC(C5)N6)nc(OCC56CCCN5CC(F)C6)nc4c3F)c12
Result block: 0.0192

Query block: Give me measured IC50, please, for this compound: O=C(c1ccc(F)c(F)c1Nc1ccc(I)cc1F)N1CC(O)([C@@H]2CCCCN2)C1 + C#Cc1c(F)ccc2cc(O)cc(-c3ncc4c(N5CC6CCC(C5)N6)nc(OCC56CCCN5CC(F)C6)nc4c3F)c12
Result block: 0.0108

Query block: Give me measured IC50, please, for this compound: C[C@@H](NC(=O)c1ncnc(N)c1Cl)c1ncc(C(=O)Nc2cc(C(F)(F)F)c(Cl)cn2)s1 + C#Cc1c(F)ccc2cc(O)cc(-c3ncc4c(N5CC6CCC(C5)N6)nc(OCC56CCCN5CC(F)C6)nc4c3F)c12
Result block: 7.73

Query block: Give me measured IC50, please, for this compound: CCc1c2c(nc3ccc(O)cc13)-c1cc3c(c(=O)n1C2)COC(=O)[C@]3(O)CC + C#Cc1c(F)ccc2cc(O)cc(-c3ncc4c(N5CC6CCC(C5)N6)nc(OCC56CCCN5CC(F)C6)nc4c3F)c12
Result block: 0.0331

Query block: Give me measured IC50, please, for this compound: CC(Nc1ccc2c(c1)OCCn1cc(N3C(=O)OCC3C(F)F)nc1-2)C(N)=O (stereo not given) + C#Cc1c(F)ccc2cc(O)cc(-c3ncc4c(N5CC6CCC(C5)N6)nc(OCC56CCCN5CC(F)C6)nc4c3F)c12
Result block: 4.56

Query block: Give me measured IC50, please, for this compound: CCC(CC)c1cc(NC2CCC(N)C2)n2nccc2n1 (stereo not given) + C#Cc1c(F)ccc2cc(O)cc(-c3ncc4c(N5CC6CCC(C5)N6)nc(OCC56CCCN5CC(F)C6)nc4c3F)c12
Result block: 1.79

Query block: Give me measured IC50, please, for this compound: CCN1CCN(Cc2ccc(Nc3ncc(F)c(-c4cc(F)c5nc(C)n(C(C)C)c5c4)n3)nc2)CC1 + C#Cc1c(F)ccc2cc(O)cc(-c3ncc4c(N5CC6CCC(C5)N6)nc(OCC56CCCN5CC(F)C6)nc4c3F)c12
Result block: 0.526

###

Assignment: determine reported viability, T/C for the given compounds.
# System: PDC 899932-113-R3-J6 complex spheroid viability
# EXPERIMENT NOTES: Anticancer human tumor 899932-113-R3-J6-PDC cell line growth inhibition [RAS];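 on viability, T/C: spheroids exposed to agents for seven days before readout; 100% = DMSO vehicle control wells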
# STUDY CONDITIONS: second compound 0.316 µM; first compound 0.1 µM; stronger effect = lower value
Provide only the numeric value, understood in %.

Query block: Give me measured viability, T/C, please, for this compound: C=CC(=O)Nc1cc(Nc2nccc(-c3cn(C)c4ccccc34)n2)c(OC)cc1N(C)CCN(C)C + C#Cc1c(F)ccc2cc(O)cc(-c3ncc4c(N5CC6CCC(C5)N6)nc(OCC56CCCN5CC(F)C6)nc4c3F)c12
Result block: 107

Query block: Give me measured viability, T/C, please, for this compound: CC(Nc1ccc2c(c1)OCCn1cc(N3C(=O)OCC3C(F)F)nc1-2)C(N)=O (stereo not drawn) + C=CC(=O)N1CCN(c2nc(OCC3CCCN3C)nc3c(F)c(-c4nc(N)cc(C)c4C(F)(F)F)c(Cl)cc23)C(C)C1
Result block: 75.9

Query block: Give me measured viability, T/C, please, for this compound: Cc1nc(N2CCC3(CC2)COC(C)C3N)c(CO)nc1Sc1ccnc(N)c1Cl (stereo not drawn) + C#Cc1c(F)ccc2cc(O)cc(-c3ncc4c(N5CC6CCC(C5)N6)nc(OCC56CCCN5CC(F)C6)nc4c3F)c12
Result block: 101

Query block: Give me measured viability, T/C, please, for this compound: NC1c2ccccc2OC12CCN(c1cnc3c(N4CCCc5ncccc54)n[nH]c3n1)CC2 (stereo not drawn) + C#Cc1c(F)ccc2cc(O)cc(-c3ncc4c(N5CC6CCC(C5)N6)nc(OCC56CCCN5CC(F)C6)nc4c3F)c12
Result block: 120

Query block: Give me measured viability, T/C, please, for this compound: CCC(CC)c1cc(NC2CCC(N)C2)n2nccc2n1 (stereo not drawn) + C#Cc1c(F)ccc2cc(O)cc(-c3ncc4c(N5CC6CCC(C5)N6)nc(OCC56CCCN5CC(F)C6)nc4c3F)c12
Result block: 93.9

Query block: Give me measured viability, T/C, please, for this compound: CC1(O)CCCC1n1c(=O)c(C(F)F)cc2cnc(NC3CCN(S(C)(=O)=O)CC3)nc21 (stereo not drawn) + C#Cc1c(F)ccc2cc(O)cc(-c3ncc4c(N5CC6CCC(C5)N6)nc(OCC56CCCN5CC(F)C6)nc4c3F)c12
Result block: 93

Query block: Give me measured viability, T/C, please, for this compound: C[C@@H](NC(=O)c1ncnc(N)c1Cl)c1ncc(C(=O)Nc2cc(C(F)(F)F)c(Cl)cn2)s1 + C=CC(=O)N1CCN(c2nc(OCC3CCCN3C)nc3c(F)c(-c4nc(N)cc(C)c4C(F)(F)F)c(Cl)cc23)C(C)C1
Result block: 136

Query block: Give me measured viability, T/C, please, for this compound: CC(C)NCC(C(=O)N1CCN(c2ncnc3c2C(C)CC3O)CC1)c1ccc(Cl)cc1 (stereo not drawn) + C#Cc1c(F)ccc2cc(O)cc(-c3ncc4c(N5CC6CCC(C5)N6)nc(OCC56CCCN5CC(F)C6)nc4c3F)c12
Result block: 115

###

# System: PDC 899932-113-R3-J6 complex spheroid viability
# EXPERIMENT NOTES: Anticancer human tumor 899932-113-R3-J6-PDC cell line growth inhibition [RAS];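 on viability, T/C: spheroids exposed to agents for seven days before readout; 100% = DMSO vehicle control wells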
# STUDY CONDITIONS: second compound 0.3 µM; first compound 0.000949 µM; stronger effect = lower value
EXPERIMENTAL READOUT: viability, T/C (%)
Provide only the numeric value, understood in %.

Query block: Provide PDC 899932-113-R3-J6 complex spheroid viability viability, T/C reading for CCc1c2c(nc3ccc(O)cc13)-c1cc3c(c(=O)n1C2)COC(=O)[C@]3(O)CC + CCn1c(-c2cccnc2C(C)OC)c2c3cc(ccc31)N1CCOC(CC(NC(=O)C(C(C)C)N(C)C(=O)C3(F)CCN(C(=O)C#CC(C)(C)N(C)C)CC3)C(=O)N3CCCC(N3)C(=O)OCC(C)(C)C2)C1 .
Result block: 71.1

Query block: Provide PDC 899932-113-R3-J6 complex spheroid viability viability, T/C reading for CCc1c2c(nc3ccc(O)cc13)-c1cc3c(c(=O)n1C2)COC(=O)[C@]3(O)CC + CCn1c(-c2cc(N3CCN(C)CC3)cnc2C(C)OC)c2c3cc(ccc31)-c1csc(n1)CC(NC(=O)C1CC1C)C(=O)N1CCCC(N1)C(=O)OCC(C)(C)C2 .
Result block: 1.75

Query block: Provide PDC 899932-113-R3-J6 complex spheroid viability viability, T/C reading for CC1(C)CCC(Nc2ncc(C(F)(F)F)c(-c3c[nH]c4c(P(C)(C)=O)c(C#N)ccc34)n2)CN1 (centres undefined) + CCn1c(-c2cc(N3CCN(C)CC3)cnc2C(C)OC)c2c3cc(ccc31)-c1csc(n1)CC(NC(=O)C1CC1C)C(=O)N1CCCC(N1)C(=O)OCC(C)(C)C2 .
Result block: 2.15

Query block: Provide PDC 899932-113-R3-J6 complex spheroid viability viability, T/C reading for CC1(C)CCC(Nc2ncc(C(F)(F)F)c(-c3c[nH]c4c(P(C)(C)=O)c(C#N)ccc34)n2)CN1 (centres undefined) + CCn1c(-c2cccnc2C(C)OC)c2c3cc(ccc31)N1CCOC(CC(NC(=O)C(C(C)C)N(C)C(=O)C3(F)CCN(C(=O)C#CC(C)(C)N(C)C)CC3)C(=O)N3CCCC(N3)C(=O)OCC(C)(C)C2)C1 .
Result block: 79.3

###

# System: PDC 899932-113-R3-J6 complex spheroid viability
# EXPERIMENT NOTES: Anticancer human tumor 899932-113-R3-J6-PDC cell line growth inhibition [RAS];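 on viability, T/C: spheroids exposed to agents for seven days before readout; 100% = DMSO vehicle control wells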
# STUDY CONDITIONS: second compound 0.00316 µM; first compound 0.1 µM; stronger effect = lower value
Assignment: determine reported viability, T/C for the given compounds.
Provide only the numeric value, understood in %.

Query block: Give me measured viability, T/C, please, for this compound: CC(=O)OC12COC1CC(O)C1(C)C(=O)C(O)C3=C(C)C(OC(=O)C(O)C(NC(=O)OC(C)(C)C)c4ccccc4)CC(O)(C(OC(=O)c4ccccc4)C21)C3(C)C (stereo not drawn) + C=CC(=O)N1CCN(c2nc(OCC3CCCN3C)nc3c(F)c(-c4nc(N)cc(C)c4C(F)(F)F)c(Cl)cc23)C(C)C1
Result block: 30.6

Query block: Give me measured viability, T/C, please, for this compound: O=C(c1ccc(F)c(F)c1Nc1ccc(I)cc1F)N1CC(O)([C@@H]2CCCCN2)C1 + C=CC(=O)N1CCN(c2nc(OCC3CCCN3C)nc3c(F)c(-c4nc(N)cc(C)c4C(F)(F)F)c(Cl)cc23)C(C)C1
Result block: 3.24

Query block: Give me measured viability, T/C, please, for this compound: CC(C)n1nc(-c2ccc3oc(N)nc3c2)c2c(N)ncnc21 + C=CC(=O)N1CCN(c2nc(OCC3CCCN3C)nc3c(F)c(-c4nc(N)cc(C)c4C(F)(F)F)c(Cl)cc23)C(C)C1
Result block: 47.3
